Quick reference for EC50 among some binders
- TARGET_ENTITY: T1, human TF-His (human, UniProt P13726 33-251)
- T1 construct: range 33-251; Recombinant extracellular segment expressed in HEK293-EBNA cells and purified on a nickel column; also called h.TF-His; h; TF-his; not shown: His tag from vector pTT5-His
- PROCEDURE_TEXT: antigenic protein-based ELISA, after conjugation with B81 (TF antigen species not stated)
The figure you give is taken to be in ng/mL; do not add the unit.

Recorded results for 3 binders are shown here.
binder="22F11H5-hz1-B81 (antibody, human IgG1, kappa, V domains shown, drug-linker DL-01 (B81) on cysteine sulfhydryl group; prepared by the TF-ADC (DAR8) method (1 toxin molecule per light chain); drug-linker DL-01 (B81) on cysteine sulfhydryl groups; prepared by the TF-ADC (DAR8) method (3 toxin molecules per heavy chain)) VH: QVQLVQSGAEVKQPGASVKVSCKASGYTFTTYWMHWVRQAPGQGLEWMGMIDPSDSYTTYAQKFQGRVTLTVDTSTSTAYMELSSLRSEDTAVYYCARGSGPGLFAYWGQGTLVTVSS VL: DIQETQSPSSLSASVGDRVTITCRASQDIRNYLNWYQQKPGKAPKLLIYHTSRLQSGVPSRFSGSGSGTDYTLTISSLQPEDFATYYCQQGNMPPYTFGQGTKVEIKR" endpoint_name=EC50 readout_unit=ng/mL observed=8.83
binder="30G11B7-hz1-B81 (antibody, human IgG1, kappa, V domains shown, drug-linker DL-01 (B81) on cysteine sulfhydryl group; prepared by the TF-ADC (DAR8) method (1 toxin molecule per light chain); drug-linker DL-01 (B81) on cysteine sulfhydryl groups; prepared by the TF-ADC (DAR8) method (3 toxin molecules per heavy chain)) VH: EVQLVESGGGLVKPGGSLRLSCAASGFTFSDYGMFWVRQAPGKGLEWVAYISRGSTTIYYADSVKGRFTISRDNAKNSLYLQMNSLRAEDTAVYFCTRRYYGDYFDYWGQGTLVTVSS VL: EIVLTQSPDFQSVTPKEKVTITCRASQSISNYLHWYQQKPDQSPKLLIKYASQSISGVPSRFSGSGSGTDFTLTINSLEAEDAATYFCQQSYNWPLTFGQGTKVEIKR" endpoint_name=EC50 readout_unit=ng/mL observed=7.75
binder="2B12B10-hz1-B81 (antibody, human IgG1, kappa, V domains shown, drug-linker DL-01 (B81) on cysteine sulfhydryl group; prepared by the TF-ADC (DAR8) method (1 toxin molecule per light chain); drug-linker DL-01 (B81) on cysteine sulfhydryl groups; prepared by the TF-ADC (DAR8) method (3 toxin molecules per heavy chain), also called 2B12B10-B81) VH: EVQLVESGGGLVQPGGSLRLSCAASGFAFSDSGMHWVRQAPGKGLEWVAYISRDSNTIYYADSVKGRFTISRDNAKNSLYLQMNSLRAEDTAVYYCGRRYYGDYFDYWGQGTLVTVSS VL: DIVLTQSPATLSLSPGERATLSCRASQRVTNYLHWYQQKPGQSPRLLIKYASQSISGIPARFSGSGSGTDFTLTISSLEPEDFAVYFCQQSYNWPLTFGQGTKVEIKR" endpoint_name=EC50 readout_unit=ng/mL observed=3.76

Note: attention shifts to another entry.
// EC50 lookup, key: 27H8H3-hz1-B81 (antibody, human IgG1, kappa, V domains shown, drug-linker DL-01 (B81) on cysteine sulfhydryl group; prepared by the TF-ADC (DAR8) method (1 toxin molecule per light chain); drug-linker DL-01 (B81) on cysteine sulfhydryl groups; prepared by the TF-ADC (DAR8) method (3 toxin molecules per heavy chain)) VH: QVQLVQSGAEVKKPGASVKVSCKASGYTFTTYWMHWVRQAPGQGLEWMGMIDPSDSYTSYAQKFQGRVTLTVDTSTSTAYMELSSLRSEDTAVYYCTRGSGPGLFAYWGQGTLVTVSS VL: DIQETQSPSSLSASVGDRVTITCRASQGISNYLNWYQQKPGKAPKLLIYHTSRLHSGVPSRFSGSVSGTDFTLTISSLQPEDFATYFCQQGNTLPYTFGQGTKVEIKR
3.43
